Biological target: Carbonic anhydrase 2 (Homo sapiens)
measured_metric: Ki (nM)
The reply should be a number in nM, with the unit left off.

Assay Carbonic anhydrase 2 (Homo sapiens), sample NS(=O)(=O)c1ccc(/N=C/c2ccc(O)cc2)cc1 , Ki read: 702
